EXPERIMENTAL DETAILS: Mean residence time (0-t) in Sprague-Dawley rat at 1 mg/kg, ig
Assay type: ADME, organism-based
Set-up: dose 1 mg/kg, route intragastric
TEST CONTEXT: in vivo, po
READOUT: MRT last (h)
Answers are plain numbers, in h.

Tell me measured MRT last for CC(C)C[C@H](NC(=O)[C@H](Cc1ccccc1)NC(=O)c1cnccn1)B(O)O please.
7.69

* * *

EXPERIMENTAL DETAILS: Terminal half life in Sprague-Dawley rat at 1 mg/kg, iv
Type: ADME, organism-based
Set-up: dose 1 mg/kg, route intravenous
TEST CONTEXT: in vivo
READOUT: half-life (h)
Answers are plain numbers, in h.

Tell me measured half-life for CC(C)C[C@H](NC(=O)CC(NC(=O)c1ccc2ccccc2c1)c1cccc(F)c1)B(O)O (stereo partly specified) please.
4.5

* * *

EXPERIMENTAL DETAILS: Tmax in Sprague-Dawley rat at 1 mg/kg, iv
Assay type: ADME, organism-based
Set-up: dose 1 mg/kg, route intravenous
TEST CONTEXT: in vivo
READOUT: Tmax (min)
One number for each entry, in min.

Tell me measured Tmax for CC(C)C[C@H](NC(=O)CC(NC(=O)c1ccc2ccccc2c1)c1cccc(F)c1)B(O)O (stereo partly specified) please.
1.8

* * *

EXPERIMENTAL DETAILS: Apparent volume of distribution in Sprague-Dawley rat at 1 mg/kg, iv
Assay type: ADME, organism-based
Design: dose 1 mg/kg, route intravenous
TEST CONTEXT: in vivo, read-out: Vz
READOUT: Vd
Number first, unit second: that is the form wanted.

Tell me measured Vd for CC(C)C[C@H](NC(=O)CC(NC(=O)c1ccc2ccccc2c1)c1cccc(F)c1)B(O)O (stereo partly specified) please.
3.9 L/kg

* * *

EXPERIMENTAL DETAILS: Cmax in Sprague-Dawley rat at 1 mg/kg, iv
Type: ADME, organism-based
Parameters: dose 1 mg/kg, route intravenous
TEST CONTEXT: in vivo
READOUT: Cmax (ng/mL)
One number for each entry, in ng/mL.

Tell me measured Cmax for CC(C)C[C@H](NC(=O)CC(NC(=O)c1ccc2ccccc2c1)c1cccc(F)c1)B(O)O (stereo partly specified) please.
5790

Values were extracted from ChEMBL document CHEMBL1629441.
